pIC50 for assorted compounds
Assay system: angiotensin converting enzyme (Oryctolagus cuniculus, UniProt P12822)
Construct: The enzyme employed in this test has been isolated from rabbit lungs
Sequence (P12822 34-1310): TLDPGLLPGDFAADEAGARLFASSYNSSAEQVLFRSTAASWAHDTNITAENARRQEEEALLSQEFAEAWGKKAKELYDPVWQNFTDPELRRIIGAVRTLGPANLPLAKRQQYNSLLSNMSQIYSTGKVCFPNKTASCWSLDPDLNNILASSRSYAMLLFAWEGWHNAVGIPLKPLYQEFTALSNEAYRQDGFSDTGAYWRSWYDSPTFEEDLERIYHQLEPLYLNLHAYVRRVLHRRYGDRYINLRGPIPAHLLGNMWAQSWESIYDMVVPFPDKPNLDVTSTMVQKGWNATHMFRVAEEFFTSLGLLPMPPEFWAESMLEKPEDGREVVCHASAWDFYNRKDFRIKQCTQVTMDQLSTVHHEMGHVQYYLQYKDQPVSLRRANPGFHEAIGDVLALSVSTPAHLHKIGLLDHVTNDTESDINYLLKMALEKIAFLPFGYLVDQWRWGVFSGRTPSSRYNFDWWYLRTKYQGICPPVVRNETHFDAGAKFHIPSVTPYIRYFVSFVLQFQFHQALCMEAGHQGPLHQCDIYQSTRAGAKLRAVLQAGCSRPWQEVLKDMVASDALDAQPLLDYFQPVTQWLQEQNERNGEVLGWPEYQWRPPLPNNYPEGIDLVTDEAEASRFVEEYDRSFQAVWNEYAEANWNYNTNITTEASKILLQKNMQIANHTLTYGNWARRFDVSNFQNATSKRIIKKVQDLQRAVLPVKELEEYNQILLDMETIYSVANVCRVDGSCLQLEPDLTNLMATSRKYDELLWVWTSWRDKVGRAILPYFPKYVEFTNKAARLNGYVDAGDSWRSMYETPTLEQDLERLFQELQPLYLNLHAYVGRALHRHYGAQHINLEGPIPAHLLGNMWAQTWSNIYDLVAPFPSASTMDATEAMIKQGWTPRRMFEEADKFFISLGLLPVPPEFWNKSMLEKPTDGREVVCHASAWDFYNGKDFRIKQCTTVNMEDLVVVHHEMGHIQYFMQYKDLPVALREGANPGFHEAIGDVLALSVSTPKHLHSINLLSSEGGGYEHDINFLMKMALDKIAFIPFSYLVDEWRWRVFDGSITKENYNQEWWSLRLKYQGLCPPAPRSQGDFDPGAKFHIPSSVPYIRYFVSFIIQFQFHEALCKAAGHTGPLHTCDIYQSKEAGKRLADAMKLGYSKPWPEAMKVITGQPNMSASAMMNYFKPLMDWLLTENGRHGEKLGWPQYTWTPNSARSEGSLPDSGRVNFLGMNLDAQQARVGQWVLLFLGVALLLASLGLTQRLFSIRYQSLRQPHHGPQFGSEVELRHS
Test summary: Inhibition of the angiotensin converting enzyme (IC50)
Test parameters: enzyme isolated from rabbit lungs (Cushman and Cheung)
pIC50: −log10 of the molar value. *1 amine or outer side, *2 acyl side, *3 side chain or, on linkers, in order; H or OH if unused. Where a SMILES comes first, the peptide text is derived from it. [ ]: non-standard residue; d: D form. X1 = O=C([C@@H]1C[C@H](Sc2ccccc2)CN1[*:1])[*:2]; pGlu = O=C1CC[C@@H](C(=O)O)N1

Compound	pIC50
C[C@H](NC(=O)[C@H](Cc1ccccc1)NC(=O)[C@H](CCCCN)NC(=O)[C@@H]1CCC(=O)N1)C(=O)N1CCC[C@H]1C(=O)O [(c), Glp--Lys--Phe--Ala--Pro--OH] ([pGlu]KFAP-OH)	7.00
C[C@H](NC(=O)[C@H](Cc1ccccc1)NC(=O)[C@H](CCCCN)NC(=O)[C@@H]1CCC(=O)N1)C(=O)N1C[C@@H](Sc2ccccc2)C[C@H]1C(=O)O [(e), Glp--Lys--Phe--Ala--Pro(S--Ph)--OH] ([pGlu]KFA[X1]-OH)	7.22
C[C@H](NC(=O)[C@H](Cc1c[nH]c2ccccc12)NC(=O)[C@H](CCCCN)NC(=O)[C@@H]1CCC(=O)N1)C(=O)N1CCC[C@H]1C(=O)O [(d), Glp--Lys--Trp--Ala--Pro--OH] ([pGlu]KWAP-OH)	7.00
